All figures here come from ChEMBL document CHEMBL3785035.

# Protocol: Half life in rat liver S9 fraction at 100 uM preincubated for 5 mins followed by glutathione addition measured after 2 hrs by LC-MS/MS analysis
# Assay type: ADME, subcellular
Property name: half-life at 100 µM

Which measured half-life at 100 µM value corresponds to `CC(=O)Nc1ccc(O)cc1` ?
1.48 h

Which measured half-life at 100 µM value corresponds to `CN[C@@H]1[C@H](O)[C@H](NC)[C@H]2O[C@]3(O)[C@H](O[C@@H]2[C@H]1O)O[C@H](C)C[C@H]3NC(=O)Cc1ccc(O)cn1` ?
> 50 h

Which measured half-life at 100 µM value corresponds to `CN[C@@H]1[C@H](O)[C@H](NC)[C@H]2O[C@]3(O)[C@H](O[C@@H]2[C@H]1O)O[C@H](C)C[C@H]3NC(=O)Cc1ccc(Cl)cn1` ?
> 50 h

Which measured half-life at 100 µM value corresponds to `CN[C@@H]1[C@H](O)[C@H](NC)[C@H]2O[C@]3(O)[C@H](O[C@@H]2[C@H]1O)O[C@H](C)C[C@H]3NC(=O)Cc1cc(Cl)c(C)cn1` ?
0.66 h

###

Parameter: remaining at 2 h, 100 µM. Scope: all listed entries.
# Protocol: Metabolic stability in human liver S9 fraction assessed as parent compound remaining at 100 uM preincubated for 5 mins followed by glutathione addition measured after 2 hrs by LC-MS/MS analysis
# Assay type: ADME, subcellular
# Experimental context: read-out: Stability
Quick note: give the figure in %, leave out the unit.

// solved cases for remaining at 2 h, 100 µM follow
>>> observed_measurement("CN[C@@H]1[C@H](O)[C@H](NC)[C@H]2O[C@]3(O)[C@H](O[C@@H]2[C@H]1O)O[C@H](C)C[C@H]3NC(=O)Cc1cc(Cl)c(C)cn1")
93.5
>>> observed_measurement("CC(=O)Nc1ccc(O)cc1")
74.5
>>> observed_measurement("CN[C@@H]1[C@H](O)[C@H](NC)[C@H]2O[C@]3(O)[C@H](O[C@@H]2[C@H]1O)O[C@H](C)C[C@H]3NC(=O)Cc1ccc(F)cn1")
98.7

Which measured remaining at 2 h, 100 µM value corresponds to `CN[C@@H]1[C@H](O)[C@H](NC)[C@H]2O[C@]3(O)[C@H](O[C@@H]2[C@H]1O)O[C@H](C)C[C@H]3NC(=O)Cc1ccccn1` ?
96.7

###

Parameter: half-life at 100 µM. Scope: all listed entries.
# Protocol: Half life in human liver S9 fraction at 100 uM preincubated for 5 mins followed by glutathione addition measured after 2 hrs by LC-MS/MS analysis
# Assay type: ADME, subcellular

Which measured half-life at 100 µM value corresponds to `CN[C@@H]1[C@H](O)[C@H](NC)[C@H]2O[C@]3(O)[C@H](O[C@@H]2[C@H]1O)O[C@H](C)C[C@H]3NC(=O)Cc1ccc(F)cn1` ?
> 50 h

Which measured half-life at 100 µM value corresponds to `CC(=O)Nc1ccc(O)cc1` ?
4.4 h

Which measured half-life at 100 µM value corresponds to `CN[C@@H]1[C@H](O)[C@H](NC)[C@H]2O[C@]3(O)[C@H](O[C@@H]2[C@H]1O)O[C@H](C)C[C@H]3NC(=O)Cc1cc(Cl)ccn1` ?
> 50 h

Which measured half-life at 100 µM value corresponds to `CN[C@@H]1[C@H](O)[C@H](NC)[C@H]2O[C@]3(O)[C@H](O[C@@H]2[C@H]1O)O[C@H](C)C[C@H]3NC(=O)Cc1cc(Cl)c(OC)cn1` ?
> 50 h
